Details: 298.15 K; 101.3 kPa; Liquid
Numbers after ± are expanded uncertainties.
Entries and their mass density

| Molecule | mass density |
| --- | --- |
| COC(=O)OC [dimethyl carbonate] | 1062.95 ± 0.23 kg/m3 |
| CCCCCCC | 682.91 ± 0.71 kg/m3 |
| Clc1ccccc1 | 1101.33 ± 0.4 kg/m3 |
| CCCCCC | 657.44 ± 0.68 kg/m3 |

====

Details: 323.15 K; 101.3 kPa; Liquid
Endpoint Label: mass density (kg/m3)

| Compound | Result Value |
| --- | --- |
| CCCCCCC | 661.16 |
| COC(=O)OC [dimethyl carbonate] | 1029.59 |
| Clc1ccccc1 | 1074.26 |
| CCCCCC | 634.07 |
